Target: T1, SARS-CoV-2 Spike RBD A475V (SARS-CoV-2, UniProt P0DTC2 319-541)
T1 construct: domain: RBD
Assay: HTRF, soluble RBD construct
Each record here notes measured fold over background.
The answer is to be given in fold over background; state only the numeric part.

PR197_00647 (antibody, V domains shown) VH: QVQLVESGGGVVQPGRSLRLSCAASGFTFSSYAMHWVRQAPGKGLQWVTLISYDGGDKYYADSVRGRFTISRDNSKNTLYLQMNSLRTEDTAVYYCARDRPQTGDWFPPIPTGVLDVWGQGTTVTVSS VL: DIQMTQSPSSLSASVGDRVTITCRASQGISNYLAWFQQKPGKAPKSLIYAASSLQSGVPSRFSGSESGTDFTLTISSLQPEDFATYYCQQYHSYPITFGQGTRLEIK    0.999
PR193_00018 (antibody, V domains shown, also called IMM20184; IMM200184) VH: EVQLVESGGGLVQPGGSLRLSCSASGFTFSSFWMSWVRQAPGKGLEWVATIREDGSEKYYVDSVKGRFSISRDNAKNSLYLQMNSLRAEDTAVYYCARSKWLRGSFDYWGQGTLVTVSS VL: NFMLTQPHSVSESPGKTVTISCTRRSGSIASNYVQWYQQRPGSAPTTVIYEDNQRPSGVPDRFSGSIDSSSNSASLTISGLQTEDEADYYCQSYDSSNPPGASWVFGGGTKLTVL    4.42
PR194_00292 (antibody, V domains shown) VH: QVQLQQWGAGLLKPSETLSLTCAVYGGSLSGYYWSWIRQPPGKGLEWIGEINHSGSTNHNPSLKSRVSISVDTSKNQFSLKLSSVTAADTAVYYCARAWKYSSSWYSGGIYYGMDVWGQGTTVTVSS VL: QSALTQPASVSGSPGQSITISCSGTSSDVGSYNLVSWYQQHPGKAPKLMIYEGTKRPSGVSNRFSSSKSGNTASLTISGLQAEDEADYYCCSYAGFSTWVFGGGTKLTVL    1.02

Would you mind telling me what fold over background value was observed for PR194_00232 (antibody, V domains shown, also called IMM20190; PR194_00190) VH: EVQLVESGGGLVQPGGSLRLSCSASGFTVSSNYMSWVRQAPRKGLEWVSVIYAGGSTFYADSVKGRFTISRDNSKNTLLLQMNSLRAEDTAVYYCARDRGGYLDYWGQGTLVTVSS VL: DIQMTQSPSSLSASVGDRVTITCRASQGISNYLAWYQQKPGKVPKLLIYAASTLQSGVPSRFSGSGSGTDFTLTISSLQPEDVATYYCQKYNSAPGLTFGGGTKVEIK ? 7.47

Now consider PR201_00151 (antibody, V domains shown) VH: RVTLRESGPALVKPTQTLTLTCTFSGFSLNTSGMCVSWIRQPPGKALEWLARIDWDDDKYYSTSLETRLTISKDTSKNQVVLTMTNLDPVDTGTYYCARISIQSRGGGADYWGQGTLVTVSS VL: DIQMTQSPSSLSASVGDRVTITCRASQSISSYLHWYQQKSGKAPKLLIFVASTLQSGVPSRFSGSGSGTDFTLTISSLQPEDSAAYYCQQSYSPPWTFGQGTKVEIK . 5.7

What do you get for PR200_00622 (antibody, V domains shown, also called IMM20253; PR200_00253) VH: QVQLVESGGGVVQPGRSLRLSCTASGFTFSTYGMHWVRQAPGKGLEWVAVISYDGSSKHYAESVKGRFTISRDNSNNTLYLQMNRLRAEDTAVYYCARDGQPPGWGNYFDYWGQGTLVTVAS VL: SYVLTQPPSVSVAPGKTARITCGGNGIGSKSVYWYQQKPGQAPEVVVYDDSDRPSGIPERFSGSNSGNTATLTISRVEAGDEADYYCQVWDSSSDPWVFGGGTKLTVL ? 5.22

# iterate: PR199_00255 (antibody, V domains shown, also called IMM20279; PR190_00255) VH: QVQLVESGGGVVQPGRSLRLSCAASGFTFSTYGMHWVRQAPGKGLEWVAVIWYNGINKHYADSVKGRFTISRDNSKNTLYLQMSSLRVEDTAVYYCARDWGTLTTLFDFWGQGTLVTVSS VL: DIQMTQSPSSLSASVGERATITCRASQSISSHLNWYQQKPGKAPKFLIYGASSLQSGVPSRFSGSGSGTDFTLTISSLQPEDFATYYCQQSYSTPPWTFGQGTKVEIK 7.64
